Every entry's value here was drawn from ChEMBL document CHEMBL1133765.

Below is a list of entries, each paired with its recorded pKa value.
# experimentDescription: physchem
# Description: Ionization constant (pKa)
experimentalEndpoint: pKa

INSERT INTO measurements (molecule, experimentalendpoint, endpointvalue) VALUES
  ('CC(C)(C)NCC(O)COc1cccc2c1CCC(=O)N2 (stereo not drawn) [CARTEOLOL]', 'pKa', 9.2),
  ('CC(C)(C)NC[C@@H](O)COc1ccccc1C1CCCC1', 'pKa', 9.3),
  ('O=C(NCCN1CCOCC1)c1ccc(Cl)cc1 [MOCLOBEMIDE]', 'pKa', 6.2),
  ('CC1=NS(=O)(=O)c2cc(Cl)ccc2N1 [DIAZOXIDE]', 'pKa', 8.5),
  ('O=c1[nH]cc(F)c(=O)[nH]1 [FLUOROURACIL]', 'pKa', 8),
  ('Oc1ccc2c3c1O[C@H]1[C@@H](O)CC[C@@]4(O)[C@@H](C2)N(CC2CCC2)CC[C@]314 [NALBUPHINE]', 'pKa', 8.7),
  ('CC(C)COCC(CN(Cc1ccccc1)c1ccccc1)N1CCCC1 (stereo not drawn) [BEPRIDIL]', 'pKa', 9.3),
  ('OCCN1CCN(CC/C=C2/c3ccccc3Sc3ccc(Cl)cc32)CC1 [ZUCLOPENTHIXOL]', 'pKa', 8.1),
  ('CCN(CC)C(=O)N[C@H]1C[C@@H]2c3cccc4[nH]cc(c34)C[C@H]2N(C)C1 [TERGURIDE]', 'pKa', 6.8),
  ('O=C(c1ccc(OCCN2CCCCC2)cc1)c1c(-c2ccc(O)cc2)sc2cc(O)ccc12 [RALOXIFENE]', 'pKa', 9),
  ('CC(C)NC[C@H](O)COc1ccc(O)cc1 [PRENALTEROL]', 'pKa', 9.2),
  ('CCCNC1CCc2nc(N)sc2C1 (stereo not drawn)', 'pKa', 11),
  ('Cc1onc(-c2c(Cl)cccc2Cl)c1C(=O)N[C@@H]1C(=O)N2[C@@H]1SC(C)(C)[C@@H]2C(=O)O [DICLOXACILLIN]', 'pKa', 2.8),
  ('CN(C)CCC=C1c2ccccc2COc2ccccc21 [DOXEPIN]', 'pKa', 8),
  ('CC(C)NCC(O)c1cc(O)cc(O)c1 (stereo not drawn) [METAPROTERENOL]', 'pKa', 9.3),
  ('NCCc1ccc(O)c(O)c1 [DOPAMINE]', 'pKa', 8.9),
  ('COc1ccccc1OCCNCC(O)COc1cccc2[nH]c3ccccc3c12 (stereo not drawn) [CARVEDILOL]', 'pKa', 9.3),
  ('Fc1ccc([C@@H]2CCNC[C@H]2COc2ccc3c(c2)OCO3)cc1 [PAROXETINE]', 'pKa', 11.2),
  ('CN1CCN2c3ncccc3Cc3ccccc3C2C1 (stereo not drawn) [MIRTAZAPINE]', 'pKa', 7.1),
  ('O=C(NC1CCN(CCc2c[nH]c3ccccc23)CC1)c1ccccc1 [INDORAMIN]', 'pKa', 7.7),
  ('CN(C)CC(Oc1ccccc1)Oc1ccccc1 [MEDIFOXAMINE]', 'pKa', 9.2),
  ('CC(C)(C)NCC(O)COc1cccc2c1CCCC2=O (stereo not drawn) [BUNOLOL]', 'pKa', 9.3),
  ('CC(C)NCC(O)COc1ccc(COCCOC(C)C)cc1 (stereo not drawn) [BISOPROLOL]', 'pKa', 9.2);
